# tgt: GPR40 (Homo sapiens, UniProt O14842)
# Construct: expressed in transfected cells; host or cells: HEK293 cells stably expressing GPR40 (Hygromycin selection)
# Sequence (O14842 whole entry): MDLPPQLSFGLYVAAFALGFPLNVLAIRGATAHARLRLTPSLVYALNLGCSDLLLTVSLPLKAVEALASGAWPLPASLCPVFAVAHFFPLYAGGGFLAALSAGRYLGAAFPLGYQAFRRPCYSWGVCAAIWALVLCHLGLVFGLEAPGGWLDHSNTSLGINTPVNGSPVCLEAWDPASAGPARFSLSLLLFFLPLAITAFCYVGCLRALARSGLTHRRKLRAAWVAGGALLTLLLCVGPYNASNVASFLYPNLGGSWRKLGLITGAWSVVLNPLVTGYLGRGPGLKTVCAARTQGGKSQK
# assay-remarks: IP1 accumulation assay in HEK293 cells stably expressing GPR40
# Type: cell-based
# condition-details: Tables A-1a to A-7b (structure-property relationship); obtained by methods of Biological Example 1
value-kind: EC50 (nM)

>  <chemical-string>
COc1ccc(C(=O)N(CC(C)(C)CCn2cc(CCCCCCCCCCCCCC(=O)NCCN(CCC(=O)NCCN)CCC(=O)NCCN)nn2)c2cccc(C)n2)c(N2CCC(COc3cc([C@@H](CC(=O)O)C4CC4)ccn3)CC2)c1

>  <value-kind>
EC50

>  <readout-value>
0.21

$$$$

I. C[C@H](C(=O)O)[C@H](c1ccc2c(c1)O[C@@H](C1CCN(Cc3cc(-n4cc(CCCCCCCCCC(=O)NCCN(CCC(=O)NCCN)CCC(=O)NCCN)nn4)ccc3OC(F)(F)F)CC1)CC2)C1CC1
II. COc1ccc(C(=O)N(CC(C)(C)CCCCCCn2cc(CCCCCCCCCCCCC(=O)NCC[N+](C)(CCC(=O)NCCN)CCC(=O)NCCN)nn2)c2cccc(C)n2)c(N2CCC(COc3cc([C@@H](CC(=O)O)C4CC4)ccn3)CC2)c1
III. COc1ccc(F)c(-c2ccc(COc3cccc([C@@H](CC(=O)O)C4CC4)c3)cc2CC(C)(C)Cn2cc(CCCCCCCCCCCCCCCCCC(=O)NCC[N+](C)(CCC(=O)NCCN)CCC(=O)NCCN)nn2)c1
Order the entries by their reported EC50, beginning at the minimum. Your reply should list the labels following the order given in the request. II, III, I
(II: 0.21 nM, III: 1.66 nM, I: 413 nM)
